Each recorded value in this set is attributed to patent USRE47150.

Form field: variant/HC_D62R (one value per entry).
TESTED ON: T1, mouse tissue factor pathway inhibitor (TFPI) (mouse, UniProt O54819 29-289, limits assumed)
T1 construct: bought; also called mTFPI; murine TFPI
T1 sequence (looked up): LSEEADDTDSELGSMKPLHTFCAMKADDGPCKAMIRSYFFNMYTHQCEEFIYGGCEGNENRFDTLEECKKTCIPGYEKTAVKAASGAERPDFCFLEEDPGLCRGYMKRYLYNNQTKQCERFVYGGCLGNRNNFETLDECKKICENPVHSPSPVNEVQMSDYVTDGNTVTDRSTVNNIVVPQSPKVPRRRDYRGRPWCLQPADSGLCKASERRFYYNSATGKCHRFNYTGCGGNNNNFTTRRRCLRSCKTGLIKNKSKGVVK
PROTOCOL DETAILS: competitive ELISA
Provide the reading as a plain figure in ratio.

Worked set:
BINDER: 4B7 HC N32D+D62R+H107M+Y112D/LC F31M+D33F+N35T (Fab, V domains shown) VH: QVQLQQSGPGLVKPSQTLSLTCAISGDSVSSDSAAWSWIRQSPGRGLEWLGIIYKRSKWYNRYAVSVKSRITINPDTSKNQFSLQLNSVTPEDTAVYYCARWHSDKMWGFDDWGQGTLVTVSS VL: DIVMTQSPLSLPVTPGEPASISCRSSQSLVMSFGTTYLNWYLQKPGQSPQLLIYKGSNRASGVPDRFSGSGSGTDFTLKISRVEAEDVGVYYCQQYDSYPLTFGQGTKVEIKR
UNIT OF MEASUREMENT: ratio
variant/HC_D62R: 34.3

BINDER: 4B7 HC N32D+D62R+H107M+Y112D/LC F31I+S32R+D33F+N35I+D97T (Fab, V domains shown) VH: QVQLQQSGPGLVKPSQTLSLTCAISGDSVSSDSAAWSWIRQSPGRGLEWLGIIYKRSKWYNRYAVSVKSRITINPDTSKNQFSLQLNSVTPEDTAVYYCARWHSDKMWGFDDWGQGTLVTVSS VL: DIVMTQSPLSLPVTPGEPASISCRSSQSLVIRFGITYLNWYLQKPGQSPQLLIYKGSNRASGVPDRFSGSGSGTDFTLKISRVEAEDVGVYYCQQYTSYPLTFGQGTKVEIKR
UNIT OF MEASUREMENT: ratio
variant/HC_D62R: 20.6

According to the records, this binder 4B7 HC N32D+D62Q+Y112D/LC F31I+D33F+N35I+K44R (Fab, V domains shown) VH: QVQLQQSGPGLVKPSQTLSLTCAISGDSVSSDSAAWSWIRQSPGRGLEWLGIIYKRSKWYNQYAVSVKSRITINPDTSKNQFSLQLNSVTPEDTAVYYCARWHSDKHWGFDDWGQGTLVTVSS VL: DIVMTQSPLSLPVTPGEPASISCRSSQSLVISFGITYLNWYLQRPGQSPQLLIYKGSNRASGVPDRFSGSGSGTDFTLKISRVEAEDVGVYYCQQYDSYPLTFGQGTKVEIKR displays variant/HC_D62R of 18.5
